Where these numbers come from: ChEMBL document CHEMBL1275351

Experiment: Blood clearance in Sprague-Dawley rat at 1 mg/kg, iv and 3 mg/kg, po
Format: ADME, organism-based
Settings: whole blood
This listing pairs compounds with measured clearance.

- compound: "O=C(O)C1=CCN(C2CCC3(Cc4ccccc4Oc4ccccc43)C2)CC1 (centres undefined)"
  clearance [mL/min/kg]: 16
- compound: "O=C(O)C1=CCCN(C2CC[C@]3(Cc4ccccc4Cc4ccccc43)C2)C1 (single isomer, unassigned; stereoisomer 1)"
  clearance [mL/min/kg]: 2
- compound: "O=C(O)C1CN(C2CC[C@]3(Cc4ccccc4Cc4ccccc43)C2)C1 (some centres undefined)"
  clearance [mL/min/kg]: 9
- compound: "O=C(O)C1(F)CCN(C2CC[C@]3(Cc4ccccc4Cc4ccccc43)C2)CC1 (some centres undefined)"
  clearance [mL/min/kg]: 61

----------
Assay: Ratio of drug level in brain to blood in Sprague-Dawley rat at 1 mg/kg, iv and 3 mg/kg, po
Type: ADME, organism-based
Settings: read-out: BBR
Kp values, listed per item
measurement_label: Kp

- compound: "O=C(O)C1(F)CCN(C2CC[C@]3(Cc4ccccc4Cc4ccccc43)C2)CC1 (some centres undefined)"
  measurement_label: "Kp"
  recorded_value: 0.1
- compound: "O=C(O)C1CN(C2CC[C@]3(Cc4ccccc4Cc4ccccc43)C2)C1 (some centres undefined)"
  measurement_label: "Kp"
  recorded_value: 0.1
- compound: "O=C(O)C1=CCN(C2CCC3(Cc4ccccc4Oc4ccccc43)C2)CC1 (centres undefined)"
  measurement_label: "Kp"
  recorded_value: 1.8
- compound: "O=C(O)C1=CCCN(C2CC[C@]3(Cc4ccccc4Cc4ccccc43)C2)C1 (single isomer, unassigned; stereoisomer 1)"
  measurement_label: "Kp"
  recorded_value: 0.1

----------
Assay: Plasma concentration at Tmax in Sprague-Dawley rat hypnotic model at 3 mg/kg, po administered during active phase
Assay type: ADME, organism-based
Parameters: dose 3 mg/kg, route oral

- molecule: "O=C(O)C1CCN(C2CC[C@]3(Cc4ccccc4Cc4ccccc43)C2)CC1 (some centres not stated)"
  Cmax: "303 ng/mL"
- molecule: "O=C(O)C1CN(C2CC[C@]3(Cc4ccccc4Cc4ccccc43)C2)C1 (some centres not stated)"
  Cmax: "417 ng/mL"

----------
Assay: Volume of distribution at steady state in Sprague-Dawley rat at 0.5 mg/kg, iv and 1 mg/kg, po
Format: ADME, organism-based
Details: in vivo, read-out: Vdss
measurement_label: Vd (L/kg)

- compound: "O=C(O)C1CCN(C2CC[C@]3(Cc4ccccc4Cc4ccccc43)C2)CC1 (stereo partly drawn)"
  recorded_value: 2.9
- compound: "O=C(O)[C@]12C[C@H]1CN(C1CC[C@]3(Cc4ccccc4Cc4ccccc43)C1)C2 (stereo partly drawn)"
  recorded_value: 2.4
- compound: "O=C(O)C1CN(C2CCC3(Cc4ccccc4Oc4ccccc43)C2)C1 (stereo not drawn)"
  recorded_value: 1.9

----------
Target: 5-hydroxytryptamine receptor 2C (Homo sapiens)
Sequence (P28335 whole entry): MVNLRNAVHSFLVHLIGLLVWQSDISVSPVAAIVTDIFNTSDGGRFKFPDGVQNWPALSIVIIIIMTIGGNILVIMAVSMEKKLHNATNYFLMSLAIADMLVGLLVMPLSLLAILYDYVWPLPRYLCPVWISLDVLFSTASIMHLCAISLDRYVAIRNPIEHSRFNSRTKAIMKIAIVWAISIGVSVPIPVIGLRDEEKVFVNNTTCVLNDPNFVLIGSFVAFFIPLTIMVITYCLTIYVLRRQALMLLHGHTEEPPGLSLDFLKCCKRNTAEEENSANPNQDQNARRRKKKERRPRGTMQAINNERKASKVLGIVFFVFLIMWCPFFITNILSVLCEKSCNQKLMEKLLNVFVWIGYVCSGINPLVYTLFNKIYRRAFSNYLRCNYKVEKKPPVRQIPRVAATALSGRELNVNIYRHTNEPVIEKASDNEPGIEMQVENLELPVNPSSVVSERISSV
Experiment: Antagonist activity at human 5HT2C receptor expressed in human SH-SY5Y cells by FLIPR assay

- compound: "O=C(O)C1=CCCN(C2CC[C@]3(Cc4ccccc4Cc4ccccc43)C2)C1 (stereo in doubt; 48)"
  target_or_system: "5-hydroxytryptamine receptor 2C (Homo sapiens)"
  output_unit: "nM"
  relation_operator: ">"
  Ki: 2000
- compound: "O=C(O)C1CCN(C2CC[C@]3(Cc4ccccc4Cc4ccccc43)C2)C1 (some centres undefined)"
  target_or_system: "5-hydroxytryptamine receptor 2C (Homo sapiens)"
  output_unit: "nM"
  relation_operator: "="
  Ki: 15.8
- compound: "O=C(O)C1=CCCN(C2CC[C@@]3(Cc4ccccc4Cc4ccccc43)C2)C1 (some centres undefined)"
  target_or_system: "5-hydroxytryptamine receptor 2C (Homo sapiens)"
  output_unit: "nM"
  relation_operator: ">"
  Ki: 2000
- compound: "O=C(O)C1=CCCN(C2CCC3(Cc4cc(F)ccc4Cc4ccccc43)C2)C1 (centres undefined)"
  target_or_system: "5-hydroxytryptamine receptor 2C (Homo sapiens)"
  output_unit: "nM"
  relation_operator: "="
  Ki: 316
- compound: "CC1(C(=O)O)CCN(C2CC[C@]3(Cc4ccccc4Cc4ccccc43)C2)C1 (some centres undefined)"
  target_or_system: "5-hydroxytryptamine receptor 2C (Homo sapiens)"
  output_unit: "nM"
  relation_operator: "="
  Ki: 20
- compound: "O=C(O)[C@]12C[C@H]1CN(C1CC[C@]3(Cc4ccccc4Cc4ccccc43)C1)C2 (some centres undefined)"
  target_or_system: "5-hydroxytryptamine receptor 2C (Homo sapiens)"
  output_unit: "nM"
  relation_operator: "="
  Ki: 63.1
- compound: "CN1CCC(=C2c3ccccc3CC(=O)c3sccc32)CC1 [KETOTIFEN]"
  target_or_system: "5-hydroxytryptamine receptor 2C (Homo sapiens)"
  output_unit: "nM"
  relation_operator: "="
  Ki: 200
- compound: "O=C(O)C1=CCCN(C2CCC3(Cc4ccccc4Oc4ccccc43)C2)C1 (centres undefined)"
  target_or_system: "5-hydroxytryptamine receptor 2C (Homo sapiens)"
  output_unit: "nM"
  relation_operator: ">"
  Ki: 2000
- compound: "O=C(O)C1(F)CCN(C2CCC3(Cc4ccccc4Oc4ccccc43)C2)CC1 (centres undefined)"
  target_or_system: "5-hydroxytryptamine receptor 2C (Homo sapiens)"
  output_unit: "nM"
  relation_operator: ">"
  Ki: 2000
